viability at 28.5 h, 10 µM by entry:
assay details: in vitro
assay conditions: human, hela cells, % viability
experimental endpoint: viability at 28.5 h, 10 µM (%)

INSERT INTO assay_data (compound, experimental_endpoint, val) VALUES
  ('O=C(NCc1nnc(-c2cccs2)o1)c1cccc(Cl)c1', 'viability at 28.5 h, 10 µM', 95.6),
  ('Cc1nonc1CN(C)C(=O)c1ccc2c(c1)c(C)c(C)n2C', 'viability at 28.5 h, 10 µM', 56.1),
  ('Cc1cc(OCC(O)CN2CCN(Cc3ccc4c(c3)OCO4)CC2)cc(C)c1Cl (stereo not shown)', 'viability at 28.5 h, 10 µM', 93.4),
  ('Cc1nc(SCCn2cccn2)c2c(=O)n(C)c(=O)n(CC(C)C)c2n1', 'viability at 28.5 h, 10 µM', 99.1),
  ('COc1cccc(C(=O)N2Cc3ccccc3CC2C(=O)O)c1 (stereo not shown)', 'viability at 28.5 h, 10 µM', 102),
  ('OCc1ccc(-c2nccnc2NCc2ccccn2)cc1', 'viability at 28.5 h, 10 µM', 106),
  ('C=CCOc1cccc(CNc2nn[nH]n2)c1', 'viability at 28.5 h, 10 µM', 109),
  ('Cc1ccc(C#N)cc1S(=O)(=O)NC(=O)CC1CCOc2ccccc21 (stereo not shown)', 'viability at 28.5 h, 10 µM', 85.5),
  ('COc1ccc(S(=O)(=O)N(C)CC(=O)Nc2ccc(C(N)=O)cc2)cc1Cl', 'viability at 28.5 h, 10 µM', 109),
  ('CCOC(=O)c1cccnc1-c1ccc2[nH]ccc2c1', 'viability at 28.5 h, 10 µM', 99.7);

###

assay details: in vitro
Parameters: Viability of infected HeLa host cells, resazurin conversion, bulk resorufin fluorescence relative to DMSO
assay conditions: human, hela cells; bulk resorufin, mean of 2
Reported viability at 28.5 h, 5 µM values for a set of molecules
experimental endpoint: viability at 28.5 h, 5 µM (%)

INSERT INTO measurements (molecule, experimental_endpoint, result_unit, val) VALUES
  ('Cc1ccc(S(=O)(=O)Nc2ccc(S(=O)(=O)Nc3nccs3)cc2)c([N+](=O)[O-])c1', 'viability at 28.5 h, 5 µM', '%', 97.6),
  ('Cc1noc(NS(=O)(=O)c2ccc(NC(=O)COc3ccccc3Br)cc2)c1C', 'viability at 28.5 h, 5 µM', '%', 96.5),
  ('CCc1nnc(NS(=O)(=O)c2ccc(NC(=O)COc3ccc(Cl)cc3Cl)cc2)s1', 'viability at 28.5 h, 5 µM', '%', 96.7),
  ('Cc1noc(NS(=O)(=O)c2ccc(NC(=O)CCN3C(=O)c4ccccc4C3=O)cc2)c1C', 'viability at 28.5 h, 5 µM', '%', 92.8),
  ('COCCCNS(=O)(=O)c1ccc(-n2ncc(Cl)c(Cl)c2=O)cc1', 'viability at 28.5 h, 5 µM', '%', 32.2),
  ('O=C(Nc1ccccc1C(=O)Nc1nnc(C(F)(F)F)s1)c1ccccc1Cl', 'viability at 28.5 h, 5 µM', '%', 97),
  ('COc1cccc(CNc2ccc(N3CCOCC3)cc2)c1OCc1ccccc1F', 'viability at 28.5 h, 5 µM', '%', 83.8),
  ('N=C(N)Nc1nc(-c2ccccc2)c2cc(F)ccc2n1', 'viability at 28.5 h, 5 µM', '%', 111),
  ('O=S(=O)(Nc1ncccn1)c1ccc(NC(=S)Nc2ccc3c(c2)OCO3)cc1', 'viability at 28.5 h, 5 µM', '%', 121),
  ('C/C(=N\Nc1nnc2c(n1)[nH]c1ccccc12)c1ccccn1', 'viability at 28.5 h, 5 µM', '%', 69.7),
  ('COC(=O)CCc1ccc(-c2cnc(N)c(-c3ccc(O)cc3)n2)cc1', 'viability at 28.5 h, 5 µM', '%', 118),
  ('O=[N+]([O-])c1ccc2[nH]c3c(c2c1)CCCC3NC1CCN(CCc2ccccc2)CC1 (stereo not shown)', 'viability at 28.5 h, 5 µM', '%', 84.8),
  ('Cc1ccc2nsnc2c1S(=O)(=O)Nc1cccc2cccnc12', 'viability at 28.5 h, 5 µM', '%', 60.6),
  ('COc1ccc(C=CC(=O)Nc2sc3c(c2C(=O)O)CCCC3)cc1OC', 'viability at 28.5 h, 5 µM', '%', 87.4),
  ('CC(C)c1ccc(/C=C/C(=O)NCc2ccc(NS(C)(=O)=O)cc2)cc1', 'viability at 28.5 h, 5 µM', '%', 104),
  ('COc1cc(NS(=O)(=O)c2ccc(N/C=C3/CCc4ccccc4C3=O)cc2)nc(OC)n1', 'viability at 28.5 h, 5 µM', '%', 99.1),
  ('CC(=O)NC[C@H]1CN(c2ccc(-c3nnc(C(C)O)s3)c(F)c2)C(=O)O1 (stereo partly shown)', 'viability at 28.5 h, 5 µM', '%', 90.3),
  ('Cc1ccc2[nH]c3c(c2c1)CCOC31CCN(Cc2ccccc2-c2ccccc2)CC1', 'viability at 28.5 h, 5 µM', '%', 93.6),
  ('CCNC(=O)N1CC2(CCN(Cc3nc4ccccc4[nH]3)CC2)c2ccccc21', 'viability at 28.5 h, 5 µM', '%', 94.1),
  ('O=C(NCCc1c[nH]c2ccc(Cl)cc12)c1ccc(Cl)cc1Br', 'viability at 28.5 h, 5 µM', '%', 88.9),
  ('CC1CC(C)CN(Cc2csc(NC(=O)Cc3ccc(Cl)cc3)n2)C1 (stereo not shown)', 'viability at 28.5 h, 5 µM', '%', 91.3),
  ('Cc1ccc2[nH]c(-c3cccc(NC(=O)c4cccc(CN5CCCC5=O)c4)c3)nc2c1', 'viability at 28.5 h, 5 µM', '%', 83.3),
  ('O=C1Oc2nc3ccccc3cc2CN1C1CC1', 'viability at 28.5 h, 5 µM', '%', 112),
  ('Clc1ccc2nc(-c3ccccn3)[nH]c2c1', 'viability at 28.5 h, 5 µM', '%', 104),
  ('CCc1nnc(NS(=O)(=O)c2ccc(N/C=C3\C(=O)N(c4ccc(C)cc4)N=C3C)cc2)s1', 'viability at 28.5 h, 5 µM', '%', 101),
  ('CN(C)CCNc1nc(-c2ccc(Cl)cc2)nc2ccccc12', 'viability at 28.5 h, 5 µM', '%', 97),
  ('CCCn1c(NC(=O)C(C)Oc2ccc(Cl)cc2Cl)nc2ccccc21 (stereo not shown)', 'viability at 28.5 h, 5 µM', '%', 93.1),
  ('Cc1cc(NS(=O)(=O)c2ccc(Nc3nc(-c4cccs4)cs3)cc2)no1', 'viability at 28.5 h, 5 µM', '%', 92.2),
  ('FC(F)(F)CCN1CCC2(CC1)NCCc1c2[nH]c2ccc(Cl)cc12', 'viability at 28.5 h, 5 µM', '%', 105),
  ('CCc1cc(-c2n[nH]cc2-c2nc(C)cs2)c(O)cc1OC', 'viability at 28.5 h, 5 µM', '%', 96.8),
  ('CN1CCOC(CNc2nc(-c3ccncc3)nc3c2CCC3)C1 (stereo not shown)', 'viability at 28.5 h, 5 µM', '%', 92.8),
  ('CC(=O)NC[C@H]1CN(c2ccc(C3=CC[S+]([O-])CC3)c(F)c2)C(=O)O1 (stereo partly shown)', 'viability at 28.5 h, 5 µM', '%', 95.4),
  ('Cc1noc(NS(=O)(=O)c2ccc(NC(=O)/C=C/c3ccc(C(C)C)cc3)cc2)c1C', 'viability at 28.5 h, 5 µM', '%', 102),
  ('O=C(NCCCn1ccnc1)c1cc(-c2cccc(Br)c2)nc2ccccc12', 'viability at 28.5 h, 5 µM', '%', 115);

###

assay details: in vitro
assay conditions: human, hela cells, % viability
viability at 28.5 h, 10 µM less than 90% is T; viability at 28.5 h, 10 µM greater than or equal to 90% is F.

INSERT INTO measurements (molecule, category_label) VALUES
  ('Cc1c(CN(Cc2ccccc2)CC2CCCO2)cnn1C (stereo not shown)', 'F'),
  ('Fc1cccc(-c2nccnc2NCCc2ccncc2)c1', 'F'),
  ('O=S(=O)(Nc1cccc2[nH]ccc12)c1ccc(F)cc1', 'T'),
  ('COc1cc(CNCc2ccccn2)ccc1OCc1cccc(Cl)c1 [CBK269877C]', 'F'),
  ('O=C(CSc1nc(-c2cccs2)cc(C(F)(F)F)n1)N1CCSCC1', 'F'),
  ('Cc1ccc(S(=O)(=O)N2CCN(CCCc3ccccc3)CC2)cc1', 'F'),
  ('CCc1nn(Cc2ccccn2)c(=O)c2cc3sccc3n12', 'T'),
  ('CCC(=O)N1CCC(NCc2ccc(OCC(N)=O)cc2)C(C)C1 (stereo not shown)', 'T');
